# MEASURED TARGET: human ether-à-go-go-related gene (hERG) potassium channel (human);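 also: peak tail current of the secondary pulse compared with the same well before compound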
# Sequence (Q12809 whole entry, looked up): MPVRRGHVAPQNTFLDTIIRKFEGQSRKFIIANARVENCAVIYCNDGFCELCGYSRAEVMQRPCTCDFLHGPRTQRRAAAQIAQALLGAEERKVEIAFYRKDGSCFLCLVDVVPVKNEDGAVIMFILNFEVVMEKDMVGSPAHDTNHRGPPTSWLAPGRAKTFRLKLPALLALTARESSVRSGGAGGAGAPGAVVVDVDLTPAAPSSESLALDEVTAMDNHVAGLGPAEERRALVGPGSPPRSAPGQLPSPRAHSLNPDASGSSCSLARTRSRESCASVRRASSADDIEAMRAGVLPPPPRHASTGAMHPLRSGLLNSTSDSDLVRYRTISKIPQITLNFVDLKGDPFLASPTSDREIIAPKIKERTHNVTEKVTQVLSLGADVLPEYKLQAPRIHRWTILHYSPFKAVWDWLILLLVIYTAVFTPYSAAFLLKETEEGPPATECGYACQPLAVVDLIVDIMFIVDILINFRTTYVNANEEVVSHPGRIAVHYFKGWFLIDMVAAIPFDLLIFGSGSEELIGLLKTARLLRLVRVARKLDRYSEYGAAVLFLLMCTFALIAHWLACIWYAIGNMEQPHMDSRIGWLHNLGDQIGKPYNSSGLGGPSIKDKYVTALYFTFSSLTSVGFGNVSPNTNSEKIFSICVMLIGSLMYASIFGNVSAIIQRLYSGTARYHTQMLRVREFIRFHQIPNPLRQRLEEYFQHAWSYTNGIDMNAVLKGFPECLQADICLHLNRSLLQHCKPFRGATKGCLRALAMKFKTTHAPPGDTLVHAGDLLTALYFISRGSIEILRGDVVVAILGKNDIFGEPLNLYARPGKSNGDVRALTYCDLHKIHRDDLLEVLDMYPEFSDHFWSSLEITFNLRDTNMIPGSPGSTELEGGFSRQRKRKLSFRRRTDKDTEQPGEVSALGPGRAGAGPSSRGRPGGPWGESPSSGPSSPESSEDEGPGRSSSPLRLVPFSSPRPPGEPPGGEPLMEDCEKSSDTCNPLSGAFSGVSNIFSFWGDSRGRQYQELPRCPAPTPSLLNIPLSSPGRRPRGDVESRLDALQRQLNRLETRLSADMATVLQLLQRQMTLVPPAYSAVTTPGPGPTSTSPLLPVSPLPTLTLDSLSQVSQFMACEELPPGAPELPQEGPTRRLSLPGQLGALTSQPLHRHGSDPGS
# ASSAY NAME: primary screen, population patch clamp on CHO cells stably expressing hERG; higher = less effect of the substance
Among all 310,000 compounds or so, about 14,000 (4.5%) showed an effect of 50% or more. The effect is printed as a negative number. The full list was thinned out, with strong results kept by preference.
PROPERTY MEASURED: hERG current change (%, negative = inhibition) at 10uM (%)

| MOLECULE | MEAS VALUE |
| --- | --- |
| Cc1cc(C)c2c(CN3CCN(Cc4ccc5c(c4)OCO5)CC3)cc(=O)oc2c1 | -75.4 |
| Cc1cc(C)c2c(CN3CCN(C)CC3)cc(=O)oc2c1 | -73.3 |
| Cc1cc2oc(=O)cc(CN3CCN(Cc4ccc5c(c4)OCO5)CC3)c2cc1C | -17.2 |
| Cc1ccc(NC(=O)/C(=C/c2cccs2)NC(=O)c2ccco2)cc1 | 6.71 |
| CN1CCN(CCC(=O)N2c3ccccc3Sc3ccc(Cl)cc32)CC1 | -48.9 |
| CCCN1C2CCCC1CC(NC(=S)Nc1cc(C)cc(C)c1)C2 (stereo not shown) | -83.7 |
| Cc1cc(C)c2c(CN3CCN(Cc4ccccc4)CC3)cc(=O)oc2c1.Cl | -66.9 |
| COc1cccc(Nc2cc(C)nc3nc(C)nn23)c1 | -12.8 |
| CCCN1C2CCCC1CC(NC(=S)Nc1cc(C)ccc1C)C2 (stereo not shown) | 11.6 |
| Cc1cc(C)c2c(CN3CCCCC3)cc(=O)oc2c1 | 10.7 |
| CCOc1cccc(OCCn2cnc3ccccc3c2=O)c1 | 5.84 |
| COc1ccc(NC(=S)NC2CC3CCCC(C2)N3C2CC2)cc1 (stereo not shown) | -41.3 |
| Cc1cc(O)c2c(CN3CCN(Cc4ccccc4)CC3)cc(=O)oc2c1 | -13.1 |
| Cl.FC(F)(F)c1ccc2c(c1)N(CCCN1CCN(CCCl)CC1)c1ccccc1S2 | -8.34 |
| COc1ccccc1C(=O)Nc1cccc2nc(C)ccc12 | 8 |
| Cc1cc(C)c2c(n1)nn1c(N3CCN(c4ccccc4C)CC3)cc(C)nc21 | 7.78 |
| COc1ccc(NC(=O)CCCn2c(=O)c3sccc3n(Cc3ccccc3)c2=O)cc1 | -20.8 |
| Cc1cc(C)c2c(CN3CCOCC3)cc(=O)oc2c1 | -7.28 |
| Cc1cc(C)cc(NC(=S)NC2CC3CCCC(C2)N3C2CC2)c1 (stereo not shown) | -67.3 |
| CCCN1C2CCCC1CC(NC(=S)Nc1cccc(C)c1)C2 (stereo not shown) | -44.5 |
| Cc1ccc(N2CCN(c3cc(C)nc4nc(C)nn34)CC2)c(C)c1 | -72.6 |
| O=S(=O)(c1ccc(F)cc1)N1CCN(c2ccccc2)CC1 | -6.53 |
| CCN1CCN(Cc2cc(=O)oc3cc(C)cc(C)c23)CC1 | -68.1 |
| Cc1cc(Nc2cccc(C(F)(F)F)c2)n2nc(C)nc2n1 | -51.8 |
| Cc1cc(N2CCN(c3ccccn3)CC2)n2nc(C)nc2n1 | -51.4 |

====

# MEASURED TARGET: human ether-à-go-go-related gene (hERG) potassium channel (human);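 also: peak tail current of the secondary pulse compared with the same well before compound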
# ASSAY NAME: primary screen, population patch clamp on CHO cells stably expressing hERG; higher = less effect of the substance
About 14,000 (4.5%) of roughly 310,000 compounds showed an effect of 50% or more. The effect is printed as a negative number. For the sample, strong results were picked, then their nearest neighbours and some compounds at random.
PROPERTY MEASURED: hERG current change (%, negative = inhibition) at 10uM (%)

| MOLECULE | MEAS VALUE |
| --- | --- |
| CCc1cccc(OCCCn2ccnc2)c1.O=C(O)C(=O)O | -25.7 |
| CC(=O)NNC(=O)CSc1nnc(-c2ccccc2)c(-c2ccccc2)n1 | 19.4 |
| O=C(COc1ccccc1)N1CCN(c2ncccn2)CC1 | 10.5 |
| COCCOC(=O)c1c(C)oc2ccc(NS(=O)(=O)c3cccs3)cc12 | -51.4 |
| O=C(NCC(=O)N1CCCC1C(=O)O)OC1CCCCC1 (stereo not shown) | -6.8 |
| COc1ccccc1N1CCN(CCCCCCOc2ccc(F)cc2)CC1 | -67.2 |
| c1csc(CNc2nc(-c3cccs3)nc3ccccc23)c1 | -6.81 |
| COc1ccccc1N1CCN(CCCOc2ccc(F)cc2)CC1 | -71.8 |
| O=C(Nc1cnn(Cc2ccc(F)cc2)c1)C(c1ccccc1)c1ccccc1 | -30.1 |
| O=C(c1ccco1)N1CCN(C(=O)c2ccc(COc3ccc4c(c3)CCC4)o2)CC1 | -69 |
| O=C(CN1C(=O)NC2(CCCC2)C1=O)N1CCN(S(=O)(=O)c2ccccc2[N+](=O)[O-])CC1 | 7.61 |
| O=C(COc1ccc(Cl)cc1Cl)N1CCN(C(=O)c2ccco2)CC1 | 20.6 |
| COc1cccc(NC(=O)CN2CCN(CC(=O)Nc3ccc(F)cc3)CC2)c1 | -80.3 |
| CCOC(=O)c1c(C)oc2ccc(NS(=O)(=O)c3cccs3)cc12 | 6.47 |
| NNC(=O)c1ccc(COc2ccc3c(c2)CCC3)o1 | 0.852 |
| O=C(COc1ccccc1)N1CCN(C2CCCC2)CC1.O=C(O)C(=O)O | -13.2 |
| CN1CCN(/C=C2\SC(=S)NC2=O)CC1 | 11.6 |
| Cc1ccc(CNc2nc(-c3cccs3)nc3ccccc23)cc1 | 12.1 |
| CC(=O)Nc1ccccc1OCC(=O)NC1CCCCC1C (stereo not shown) | 8.59 |
| COc1ccccc1N1CCN(CCCCOc2cccc3ccccc23)CC1.Cl | -32.8 |
| O=C(COc1ccc(Br)cc1)N1CCN(c2ncccn2)CC1 | -83.7 |
| O=C(c1ccc(COc2ccc(Cl)cc2Cl)o1)N1CCCC1 | -43.1 |
| CC1CCCCN1CCn1c(=S)[nH]c2cc3c(cc2c1=O)OCO3 (stereo not shown) | -29 |
| c1ccc(CN2CCC(Nc3nc(-c4cccs4)nc4ccccc34)CC2)cc1 | -59.9 |
| COC(=O)c1c(C)oc2ccc(NS(=O)(=O)c3cccs3)cc12 | -2.42 |
| COC(=O)CCc1sc(NC2CCCCC2)nc1-c1ccc(OC)cc1 | 8.55 |
| c1nc(NC2CCCCC2)c2[nH]cnc2n1 | -3.86 |
| Cc1ccc(OCC(=O)NCCN2CCN(C(=O)COc3ccc(C)cc3)CC2)cc1 | -65.9 |
| O=C(NCCO)/C(=C\c1ccc(Br)cc1)NC(=O)c1cccs1 | -3.91 |
| O=CNc1ccccc1 | 14.6 |
| CC1CN(C2CCN(C(=O)COc3ccc(Cl)cc3)CC2)CC(C)O1.O=C(O)C(=O)O (stereo not shown) | -38 |
| CC(C(=O)N(C)CC(=O)Nc1ccccc1C(F)(F)F)N1C(=O)c2ccccc2C1=O (stereo not shown) | -10.7 |
| COc1ccc(NC(=O)CN2CCN(CC(=O)Nc3ccc(F)cc3)CC2)cc1Cl | -80.5 |
| CCOC(=O)c1c(-c2ccc(C)s2)csc1N | 7.8 |
